# System: MS2 coat protein
# Experimental protocol: apparent KD of MS2 coat protein; designed switch direction (-1 OFF switch, 1 ON switch): -1; higher = weaker reporter binding
# Run parameters: input ligand: FMN 200 uM
Please mark Satisfied if the recorded apparent KD of MS2 coat protein is equal to or greater than 30 nM, and Not satisfied if it falls below.

// below: answered sequences
CAGUACUGAGGAUAUACAUGAGGAUCACCCAUGUGUUCCAGCUAGGAAACUAGCAGAAGUAGAAGGCAGUACUG [salish99_ex3_r3_067] (Eterna round: R96, puzzle: Exclusion 3) | Satisfied
UUUAAUCAUGUAGGAUAUGCGUGGCGAAGCUAUGCAGAAGGACAUGAGGAUCACCCAUGUUCUAGCGUCUGCGUACAGAUGCUA [JL ENG1 1.36] (Eterna round: R96, puzzle: Exclusion NG 1) | Satisfied
AAGGCGGUAGGAUAUACAUGAGGAUCACCCAUGUGUCGCAUAAUCACAGCAGUACUCUGUAGAAGGACCGUCAG [Eternabot (L2) Solution 100] (Eterna round: R97, puzzle: Exclusion 3) | Satisfied

Prompt: Threshold query (apparent KD of MS2 coat protein >= 30 nM) on AGCUGUGGCCGAGGAUAUACAAUAACGAUGAGUGGAUUACACUCUUCGACAUGAGGAUCACCCAUGUAGAAGGCGGUCUCAGCA [Eli eng2 - 001] (Eterna round: R96, puzzle: Exclusion NG 2)
Completion: Satisfied

Prompt: Please check the record AAGUCCGAGCGAGGAUAUUCACCUCAGUCAGCUGAAGAAGGCGCUAAGCGGUGAUUAUUUUGUACAUGAGGAUCACCCAUGUCA [Eternabot solution 49] (Eterna round: R96, puzzle: Exclusion NG 1) and state if its apparent KD of MS2 coat protein is at or above 30 nM.
Completion: Not satisfied

Prompt: Decide: is the reported value of apparent KD of MS2 coat protein for GAUUAACAUGAGGAUCACCCAUGUGAGGAUAUGGACUUGCCCACUUAACCAUUAGAGUCUAGAAGGCGCAUCUC [1986#28] (Eterna round: R97, puzzle: Exclusion 1) equal to or greater than 30 nM?
Completion: Not satisfied

Prompt: Threshold query (apparent KD of MS2 coat protein >= 30 nM) on CAGUACUGAGGAUAUACAUGAGGAUCACCCAUGUUUUCCAGCUAGGAUACUAGCAAGUGUAGAAGGCAGUACUG [Mat - Exclusion 3 - Eli Mod - D6] (Eterna round: R97, puzzle: Exclusion 3)
Completion: Satisfied

Prompt: Say whether CGAUAAAUGACAGGAUAUUACGCUAAUUGGGACCCUUAACCGACAUGAGGAUCACCCAUGUUUUAUAAGAAGGGUCGUUUGUCA [Eternabot solution 47] (Eterna round: R96, puzzle: Exclusion NG 2) shows apparent KD of MS2 coat protein of 30 nM or more.
Completion: Not satisfied

Prompt: Hi team, for ACAUGAGGAUCACCCAUGUCAGGCGGGUCCACUCCGGCUGUUGAGGAUAUAGUUCGGUAUCCGCGCUAGAAGGUGAGGGCCGGC [Aenatbe mod 22] (Eterna round: R96, puzzle: Exclusion NG 3) , is the recorded apparent KD of MS2 coat protein at or above 30 nM?
Completion: Not satisfied
